Tested on: RAW264.7
Experiment: Antiinflammatory activity in mouse RAW264.7 cells assessed as inhibition of LPS-induced NO production incubated for 24 hrs by Griess reagent based analysis
Format: functional, cell-based
Conditions: RAW264.7, 24 h
Readings of pIC50 for the listed compounds
Remember, pIC50 is on a log scale: it is -log10 of the molar concentration.

[
  {
    "COMPOUND": "COc1ccc2c(c1)C[C@]1(OC)C(=O)/C(=C(O)\\C=C\\c3ccccc3)C(=O)C[C@]1(OC)O2 (racemic)",
    "QUANTITATIVE_RESULT": 5.17
  }
]

Field request: pIC50 | item: O=C(O)Cc1ccccc1Nc1c(Cl)cccc1Cl [DICLOFENAC SODIUM]
3.48
